- Target under test: GTPase KRas (Homo sapiens, UniProt P01116, G12D)
- Sequence (P01116 whole entry G12D): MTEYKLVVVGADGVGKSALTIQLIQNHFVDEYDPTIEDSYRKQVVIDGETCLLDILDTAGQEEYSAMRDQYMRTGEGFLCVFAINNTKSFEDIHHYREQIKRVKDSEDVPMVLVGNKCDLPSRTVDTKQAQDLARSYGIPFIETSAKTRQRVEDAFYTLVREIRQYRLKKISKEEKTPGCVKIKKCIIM
- Assay method text: Inhibition of KRAS G12D mutant in human ASPC1 cells assessed as reduction in ERK phosphorylation measured after 4 hrs by HTRF assay
- Assay type: cell-based
pIC50: −log10 of the molar value.
Decide by pIC50: equal to or exceeding 7 means rule met, less means rule not met.

{"Input smiles": "Cc1cc(N)nc(-c2c(Cl)cc3c(N4C[C@H]5CC[C@@H](C4)N5)nc(OCC45CCCN4CCC5)nc3c2F)c1C(F)(F)F", "Discrete label": "rule not met"}
{"Input smiles": "Nc1cc2cccc(F)c2c(-c2c(Cl)cc3c(N4C[C@H]5CC[C@@H](C4)N5)nc(OC[C@@]45CCCN4C[C@H](F)C5)nc3c2F)n1", "Discrete label": "rule not met"}
{"Input smiles": "Cc1cc(N)nc(-c2c(Cl)cc3c(N4CCNC[C@@H]4C)nc(OC[C@@H]4CCCN4C)nc3c2F)c1C(F)(F)F", "Discrete label": "rule not met"}
{"Input smiles": "N#Cc1c(N)sc2c(F)ccc(-c3c(C(F)(F)F)cc4c(N5C[C@H]6CC[C@@H](C5)N6)nc(OC[C@@]56CCCN5C[C@H](F)C6)nc4c3F)c12", "Discrete label": "rule met"}
{"Input smiles": "N#Cc1c(N)sc2c(F)ccc(-c3cc4nc(OC[C@@]56CCCN5C[C@H](F)C6)nc(N5C[C@H]6CC[C@@H](C5)N6)c4cc3Cl)c12", "Discrete label": "rule met"}

Data origin, for the record: ChEMBL document CHEMBL5370635
